Listed below: IC50 values for each entry.
- system.name: T1, human Kv1.3 (huKv1.3) (Homo sapiens, UniProt P22001)
- T1 construct: host or cells: CHO
- assay.procedure: QPatch automated patch-clamp, CHO cells stably expressing human Kv1.3 (Examples 19-21)
- Format: cell-based
- test.parameters: huKv1.3, four-point curves of FIG. 32, Table E19; read-out: IC50

{"molecule": "KB_A12_HsTx1 (antibody, V domains shown) VH: EVQLVESGGGLVRPGGSLRLSCAASGFTFSSYAMSWVRQAPGKGLEWVSAISGSGGSTYYADSVKGRFTISRDNTKNSLYLQMTSLRADDTAFYYCVKDFGPGYGTGWFDYWGPGTLVTVSS VL: QSVLTQPPSVSEAPRQRVTITCSGSSSNIGNNAVNWYQQLPGKAPKLLIYAAGRASCRTPKDCADPCRKETGCPYGKCMNRKCKCNRCANSGVSDRFSAAKSGTSASLAINGLRSEDEADYYCAAWDDSLNGYVFGTGTKLTVLG", "result.units": "nM", "IC50": 3.9}
{"molecule": "KB_A12_AnTx 2 M: AnTx N17A/F32T in VL CDR2 of KB_A12, IgG (antibody, V domains shown) VH: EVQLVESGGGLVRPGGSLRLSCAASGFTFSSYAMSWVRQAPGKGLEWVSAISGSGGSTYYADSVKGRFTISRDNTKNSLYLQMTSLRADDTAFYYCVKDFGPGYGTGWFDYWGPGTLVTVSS VL: QSVLTQPPSVSEAPRQRVTITCSGSSSNIGNNAVNWYQQLPGKAPKLLIYAAGRQKECTGPQHCTNFCRKAKCTHGKCMNRKCKCTNCKANSGVSDRFSAAKSGTSASLAINGLRSEDEADYYCAAWDDSLNGYVFGTGTKLTVLG", "result.units": "nM", "IC50": 85}
{"molecule": "KB_A12_ADWX1 short: truncated ADWX-1 in VL CDR2 of KB_A12, IgG (antibody, V domains shown) VH: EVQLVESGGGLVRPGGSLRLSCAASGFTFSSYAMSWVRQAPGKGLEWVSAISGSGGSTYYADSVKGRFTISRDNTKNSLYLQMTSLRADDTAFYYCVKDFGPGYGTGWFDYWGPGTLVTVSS VL: QSVLTQPPSVSEAPRQRVTITCSGSSSNIGNNAVNWYQQLPGKAPKLLIYAAGRVKCKHSRQCLKPCKDAGMRFGKCTNGKCHCTPKANSGVSDRFSAAKSGTSASLAINGLRSEDEADYYCAAWDDSLNGYVFGTGTKLTVLG", "result.units": "nM", "IC50": 170}
{"molecule": "KB_A12_Odk2 short: truncated OdK2 in VL CDR2 of KB_A12, IgG (antibody, V domains shown) VH: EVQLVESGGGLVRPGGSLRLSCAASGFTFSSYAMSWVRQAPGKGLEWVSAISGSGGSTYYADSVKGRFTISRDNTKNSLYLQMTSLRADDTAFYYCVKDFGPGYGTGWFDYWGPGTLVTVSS VL: QSVLTQPPSVSEAPRQRVTITCSGSSSNIGNNAVNWYQQLPGKAPKLLIYAAGRVKCRGSPQCIQPCKDAGMRFGKCMNGKCHCTPKANSGVSDRFSAAKSGTSASLAINGLRSEDEADYYCAAWDDSLNGYVFGTGTKLTVLG", "result.units": "nM", "IC50": 64}

Recorded values, source patent US20230331827A1.
